# Subject Of Test: human CD33 on primary human dendritic cells (human, UniProt P20138 18-364)
# Sequence (P20138 18-364): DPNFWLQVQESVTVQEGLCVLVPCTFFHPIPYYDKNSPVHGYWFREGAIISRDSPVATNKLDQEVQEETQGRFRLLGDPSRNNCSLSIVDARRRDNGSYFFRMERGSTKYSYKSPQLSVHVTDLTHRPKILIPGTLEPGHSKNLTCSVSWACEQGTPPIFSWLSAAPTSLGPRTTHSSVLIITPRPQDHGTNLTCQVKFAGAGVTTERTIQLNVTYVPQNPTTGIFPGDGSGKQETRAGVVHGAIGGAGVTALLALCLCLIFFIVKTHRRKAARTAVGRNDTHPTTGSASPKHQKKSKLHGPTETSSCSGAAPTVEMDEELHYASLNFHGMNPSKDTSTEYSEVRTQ
# Protocol Text: cell-based or functional assay
Measured Parameter: Fold increase in potency compared to 6C7H5 (fold)
Report the figure in fold without appending any unit label.

Before answering, review these 2 worked examples.
Binder | Result Number
anti-CD33 antibody 6C7H22 (antibody, V domains shown, VH/VL only) VH: EVQLVESGGGLVQPGGSLRLSCAGSGFTFSNYTMNWVRQAPGKGLEWVAEIRLKSNNYVTNYAASVKGRFTISRDDSKNSVYLQMNSLKTEDTGVYYCTRAGYYVPFAYWGQGTLVTVSS VL: QLVLTQSPSASASLGASVKLTCTLSSQHSTYTIEWYQQQPEKGPRYLMELKKEGSHSTGDGIPDRFSGSSSGAERYLTISSLQSEDEADYYCGVGDTIKEQFVYVFGGGTKLTVL | 0.03
anti-CD33 antibody 6C7H18 (antibody, V domains shown, VH/VL only) VH: EVQLVESGGGLVQPGGSLRLSCAGSGFTFSNYHMNWVRQAPGKGLEWVAEIRLKSNNYVTNYAASVKGRFTISRDDSKNSVYLQMNSLKTEDTGVYYCTRAGYYVPFAYWGQGTLVTVSS VL: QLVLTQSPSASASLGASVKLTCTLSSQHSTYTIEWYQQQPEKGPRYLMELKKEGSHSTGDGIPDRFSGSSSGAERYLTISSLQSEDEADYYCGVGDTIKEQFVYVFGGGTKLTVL | 0.3

anti-CD33 antibody 6C7H23 (antibody, V domains shown, VH/VL only) VH: EVQLVESGGGLVQPGGSLRLSCAGSGFTFSNYVMNWVRQAPGKGLEWVAEIRLKSNNYVTNYAASVKGRFTISRDDSKNSVYLQMNSLKTEDTGVYYCTRAGYYVPFAYWGQGTLVTVSS VL: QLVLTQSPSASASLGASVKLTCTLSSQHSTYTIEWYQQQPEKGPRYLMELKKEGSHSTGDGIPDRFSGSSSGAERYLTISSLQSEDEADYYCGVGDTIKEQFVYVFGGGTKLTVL yielded Fold increase in potency compared to 6C7H5 of 0.4
